Source of measurements: the nanobody polyreactivity screen of Harvey et al. (2022)

# assay_info: yeast display, Sf9 membrane polyspecificity reagent, FACS + sequencing; frameworks hold sequencing errors
measured_quantity: polyreactivity (PSR sort gate)

Worked examples, 6 sequences total:
QVQLVESGGGLVQAGGSLRLSCAASGFTFRANGMGWSRQAPGKERELVAVITSGGTTNYADSVKGRFTISRDNAKNTVYLQMNSLKPEDTAVYYCAVPYEPTSIPERRDYYRADDYWGQGTQVTVSS : low polyreactivity
QVQLVESGGGLVQAGGSLRLSCAASGITFRLYAMGWYRQAPGKERELVAAITGSGGRTYYADSVKGRFTISRDNAKNTVYLQMNSLNPEDTAVFYCNVYPPYAMDYWGQGTQVTVSS : high polyreactivity
QVQLVESGGGLVQAGGSLRLSCAASGITFWHNTMGWYRQAPGKERELVAAISWTGGRTYYADSVKGRFTISRDNAKNTVYLQMNSLKPEDTAVYYCAADFSWTPSGNYDSWGQGTQVTVSS : low polyreactivity
QVQRVESGGGLVQAGGSLRLSCAASGLIFRKYAMGWYRQEPGKERELVAAISLRGVSTYYADSVKGRFTISRDNAKNTVYLQMNRLKPEDTAVYYCAADVYYPLGYGLDYWGQGYQVTVSS : low polyreactivity
QVQLVESGAGFVQAGGSLRLTCAASGRNLSWYAMGWYRQAPGKEREYVAAITSSGASTYYADSVKGRFTISRDNAKNTVYLQMNSLKPEDTAVYYSNAAWRRVWFNYWGQGTQVTVSS : high polyreactivity
QVQLVESGGGLVQAGGSLRLSCAASGFIFLVNAMGWYSGAPGKERELVAAISKSTGGTYYADSVKGRFTISRDNAKNTVYLQMNSLKPEDTAVYYCAADEVYPVQRDMDYWGQGTQVTVSS : low polyreactivity

Please supply polyreactivity (PSR sort gate) for each of the following items, keeping them in order.
1. QVQLVESGGGLVQAGGSLRLSCAASGFIFGYYAMGWYRQAPGKERELVAAINKNGGSTYYADSVKGRFTISRDNAKNTVYLQMNSLKPEVTAVYYCAARARGYAWTYDYWGQGTQVTVSS
2. QVQLVESGGGLVQAGGSLRLICAASGSIFGRYSMGWYRQAPGKERELVAAINYSGGRTYYADSVKGRVTISRDNAKNTVYLQMNSLKPEDTAVYYCAAAQFPDRNYNYWGQGTQVTVSS
3. QVQLVESGGGLVQAGGSLRLSCAASGRTFYINAMGWYRQAPGKERELVAGINSRGGSTYADSVKGRFTISRDNAKNTVYLQMNSLNPEDTAVYYCNARRKYLGYNYWGQGTQVTVSS

["high polyreactivity", "high polyreactivity", "high polyreactivity"]

Please supply polyreactivity (PSR sort gate) for each of the following items, keeping them in order.
1. QVQLVESGGGLVQAGGSLRLSCAASGRTFPWYAMGWYRQAPGKERELVAAITISGGRTYYADSVKGRFTISRDNAKNTVYLQMNSLKPEDTAVYYCAAKTSFRYFNYAKPSYGYDYWGQGTQVTVSS
2. QVQLVESGGGLVQAGGSLRLRCAASGRTFDTYAMGWYRQAPWKERELVASITYRGGSTYYADSVKGRFTITRDNAKNTVYLQMNSLKPEDTAVYYCNAKVKRNKRWRGYWGQGTQVTVSS

["high polyreactivity", "high polyreactivity"]

---

# assay_info: yeast display, Sf9 membrane polyspecificity reagent, FACS + sequencing; frameworks hold sequencing errors
measured_quantity: polyreactivity (PSR sort gate)

QVQLVESGGGLVQAGGSLRLSCAASGFTFIRNAMGWYRQAPGKERELVAAISKRGGSTNYADSVKGRFTISRDNAKTTVYLLMNSLKPEDTAVYYCAADVDTRSSSGYWGQGTQVTVSS : low polyreactivity
QVQLVESGGGLVHAGGSLRLSCSASGIIFYRYAMGWYRQAPGKERELVAAITWSGVSTSYADSVKGRFTISRDNAKNTVYLKMNSLKPEDTAVYYCNIDPGTLFGDMDSWGQGNQVTVSS : low polyreactivity
QVQLVESGGGLVQAGGRLRLSCAASGSTCGPYTLGWYRQAPGTEREVVATISSGGSTYYADSVKWRFTISRDNAKNTVYLQMNSLKPEDTAVYFCNKDFFYLRTWRSVYEFEYWGQGTQVTVSS : low polyreactivity
